These data points were gathered from patent US9765065B2.

Molecular target: EP2 (Homo sapiens)
Sequence (P43116 whole entry): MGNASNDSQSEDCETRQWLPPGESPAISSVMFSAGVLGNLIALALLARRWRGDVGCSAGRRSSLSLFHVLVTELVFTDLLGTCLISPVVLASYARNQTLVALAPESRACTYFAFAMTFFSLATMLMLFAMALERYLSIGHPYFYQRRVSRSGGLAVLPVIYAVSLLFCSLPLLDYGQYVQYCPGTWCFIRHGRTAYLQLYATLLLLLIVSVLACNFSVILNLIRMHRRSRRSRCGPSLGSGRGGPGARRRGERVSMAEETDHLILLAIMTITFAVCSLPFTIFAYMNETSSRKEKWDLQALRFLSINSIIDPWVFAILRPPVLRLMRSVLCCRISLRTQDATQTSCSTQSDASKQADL
Experiment: EP2 cAMP
Format: cell-based
Source text: U.S. patent application Ser. No. 11/553,143, filed on Oct. 26, 2006, incorporated by reference herein in its entirety, describes the methods used to obtain the in vitro data in the table below.
pEC50: −log10 of the molar value.
Mark 0 (no) for pEC50 values under 9, and 1 (yes) for everything at or above.

[[record]]
compound = "C=CCCc1cccc(/C=C/[C@@H]2[C@@H](CCCc3ccc(C(=O)O)s3)[C@H](Cl)C[C@H]2O)c1 [Example 9]"
test_system = "EP2 (Homo sapiens)"
category_label = "1 (yes)"

[[record]]
compound = "O=C(O)c1ccc(CCC[C@H]2C(C(F)(F)F)C[C@@H](O)[C@@H]2C#Cc2ccccc2)s1 (single isomer, unassigned) [Example 23]"
test_system = "EP2 (Homo sapiens)"
category_label = "0 (no)"

[[record]]
compound = "O=C(O)c1ccc(CCC[C@@H]2[C@@H](/C=C\\c3cc(Cl)nc(Cl)c3)[C@H](O)C[C@H]2Cl)s1 [Example 5]"
test_system = "EP2 (Homo sapiens)"
category_label = "0 (no)"

[[record]]
compound = "CCCc1cc(/C=C/[C@@H]2[C@@H](CCCc3ccc(C(=O)O)s3)[C@H](Cl)C[C@H]2O)ccn1 [Example 13]"
test_system = "EP2 (Homo sapiens)"
category_label = "1 (yes)"

[[record]]
compound = "O=C(O)c1ccc(CCC[C@@H]2[C@@H](C#Cc3cc(Cl)cc(Cl)c3)[C@H](O)C[C@H]2Cl)s1 [Example 25]"
test_system = "EP2 (Homo sapiens)"
category_label = "1 (yes)"


----------
Target: UniProt:P43115
Sequence (P43115 whole entry): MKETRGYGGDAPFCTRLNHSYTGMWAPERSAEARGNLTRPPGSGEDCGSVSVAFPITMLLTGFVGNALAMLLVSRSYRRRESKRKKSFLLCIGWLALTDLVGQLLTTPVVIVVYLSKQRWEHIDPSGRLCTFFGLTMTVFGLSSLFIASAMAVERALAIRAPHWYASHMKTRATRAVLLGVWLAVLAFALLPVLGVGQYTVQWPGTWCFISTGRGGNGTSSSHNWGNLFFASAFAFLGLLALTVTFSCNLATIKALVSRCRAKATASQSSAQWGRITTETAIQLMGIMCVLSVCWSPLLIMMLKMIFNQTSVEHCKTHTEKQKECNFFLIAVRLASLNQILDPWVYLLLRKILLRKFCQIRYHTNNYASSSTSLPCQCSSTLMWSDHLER
Assay: Other receptors hEP3A
Type: cell-based
API: label(entry) gives 1 if the entry's EC50 is strictly smaller than 4000 nM; on equality or larger values it gives -1.

[[record]]
molecule = "O=C(O)c1ccc(CCC[C@@H]2[C@@H](C#Cc3ccccc3)[C@H](O)C[C@H]2F)s1"
category_label = -1

[[record]]
molecule = "C=CCCc1cccc(/C=C/[C@@H]2[C@@H](CCCc3ccc(C(=O)O)s3)[C@H](Cl)C[C@H]2O)c1"
category_label = -1

[[record]]
molecule = "O=C(O)c1csc(SCC[C@@H]2[C@@H](C#Cc3cc(Cl)cc(Cl)c3)[C@H](O)C[C@H]2Cl)n1"
category_label = 1

[[record]]
molecule = "Cc1cccc(/C=C/[C@@H]2[C@@H](CCCc3ccc(C(=O)O)s3)[C@H](Cl)C[C@H]2O)c1"
category_label = -1

[[record]]
molecule = "O=C(O)c1csc(SCC[C@@H]2[C@@H](C#Cc3ccccc3)[C@H](O)C[C@H]2Cl)n1"
category_label = 1

[[record]]
molecule = "O=C(O)c1ccc(CCC[C@@H]2[C@@H](C#Cc3cccs3)[C@H](O)C[C@H]2Cl)s1"
category_label = -1

[[record]]
molecule = "O=C(O)c1ccc(C=CC[C@@H]2[C@@H](C=Cc3cc(Cl)cc(Cl)c3)[C@H](O)C[C@H]2Cl)s1"
category_label = -1

[[record]]
molecule = "N#C[C@@H]1C[C@@H](O)[C@H](C#Cc2ccccc2)[C@H]1CCCc1ccc(C(=O)O)s1"
category_label = -1

[[record]]
molecule = "O=C(O)c1ccc(CCC[C@H]2C(C(F)(F)F)C[C@@H](O)[C@@H]2C#Cc2ccccc2)s1 (single isomer, unassigned)"
category_label = -1

[[record]]
molecule = "O=C(O)c1ccc(CCC[C@H]2C(=O)C[C@@H](O)[C@@H]2C#Cc2ccccc2)s1"
category_label = -1

